Where do these numbers come from? They come from patent US20190315842A1.

System: T1, 15-mer peptide GPPPPIDNGDITSFP (SEQ ID NO: 114) (human)
T1 construct: Immobilized for SPR; also called parent peptide
T1 peptide: GPPPPIDNGDITSFP
Assay procedure: assay and antigen not given; Example 10, epitope mapping on the 15-mer peptide
Recorded metric: EC50 (ng/mL)
Please reply with the bare figure in ng/mL and do not write the unit itself.

Consider the worked cases shown below.
| Binder | Unit tag | EC50 |
| --- | --- | --- |
| Ab7955 (antibody, V domains shown, Recombinant human antibody with IgG1 heavy chain backbone and kappa light chain constant; also called mAb 7955; clone 19) VH: LVESGGGVVRPGRSLRLSCVASGFTFNAYGMHWVRQGPGKGLEWLAVISYEGKTVYYADSVKDRFTISRDNSRNTVSLHLNNLRGEDTAVYYCAKGSASAAVLQHWGQGTLVSVTS VL: MTQSPGSLAVSLGSRATINCKSSRSLLYRSNNKNYLAWYQQKPGQSPRLLIYWASSRESGVPDRFSGGGSGTSFTLTISSLQAEDVAVYYCQQYFNPPWTFGQGTKVEIK | ng/mL | 6.48 |
| Ab7968 (antibody, IgG1, V domains shown, Recombinant human antibody with IgG1 heavy chain backbone and kappa light chain constant; they begin at LVESGGG and MTQSP; also called mAb 7968; mAb7968) VH: LVESGGGVVQPGRSLRLSCAASGFTFSRYGMHWVRQAPGKGLEWVAVMSYDGSTKYYADSVKGRFAISRDNPKNTLFLQMNSLRPDDTAVYYCAKGGAAAAVMDVWGKGTTVTVSS VL: MTQSPDSLTVSLGERATISCKSSQRLLYSSNNKNYLAWYQQKPGQPPKLLMYWASTRESGVPDRFSGSGSGTDFSLTISSLQAEDVAVYYCQQYYNPPWTFGQGTKVEVK | ng/mL | 7.98 |

Any idea what EC50 was measured for Ab7961/293i (antibody, IgG1, V domains shown, Recombinant human antibody with IgG1 heavy chain backbone and kappa light chain constant; they begin at LVESGGG and MTQSP; also called mAb 7961; clone 24) VH: LVESGGGVVQPGKSLRLSCVASGFTFSSYGMHWVRQAPGKGLEWVAVMSFDGKTKYYADSVKGRFTISRDNPKNTLYLQMNSLRSEDTAVYYCAKGGAAAAVFDSWGQGILLTVSS VL: MTQSPNSLAVSLGGRATINCKTSQSILYRSNNKNYLAWYQHKSGQPPKLLIYWASTRESGVPDRFSGSGSRTDFTLTISGLQAEDVAVYYCQQYYNPPWTFGQGTKVEIK ? 14.4
